Reference source for all entries: the supplement of paper PMC10065799

- measuredOn: Grb2 SH2 (UniProt P62993)
- Sequence (P62993 whole entry, looked up, the tested form may be a part): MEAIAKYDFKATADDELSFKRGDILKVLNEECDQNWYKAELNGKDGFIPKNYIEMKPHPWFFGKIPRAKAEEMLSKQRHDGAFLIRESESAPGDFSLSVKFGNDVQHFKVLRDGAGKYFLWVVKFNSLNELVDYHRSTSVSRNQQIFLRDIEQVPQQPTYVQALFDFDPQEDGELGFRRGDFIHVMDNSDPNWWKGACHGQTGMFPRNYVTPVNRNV
- measurementDescription: SH2 binding enrichment of the phosphorylated peptide, bacterial display (enrichment ratio); higher = better substrate or ligand; peptides without Tyr show the background;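 note: peptide library displayed on the E. coli surface as eCPX fusions, selected cells deep-sequenced, score is each peptide's frequency after selection divided by its frequency in the input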
Reported SH2 binding enrichment values follow for various sequences
// return a plain number; no unit text

Query KKHIPYREHKS [CSNK1G1_Y205] yields SH2 binding enrichment of 1.99

Query TSFSGYRFHRH [NKAPL_Y94_YF] yields SH2 binding enrichment of 1.28

Query CGADSYEMEED [EGFR_Y316] yields SH2 binding enrichment of 0.825

Query KLQQWYREHRS [GPI_Y17] yields SH2 binding enrichment of 1.37

Others:
Query "IKETHYMVDKC" yields SH2 binding enrichment of 0.684

Query HTVVSYAEVRA [CLOCK_Y378] yields SH2 binding enrichment of 0.721
